- System: SF-539
- Run Description: NCI tumour cell line growth inhibition, 48 h
Calls of active or inactive are those of the source. Rule as the data show it: active = GI50 up to about 1.1 µM and inactive = higher.
Respond with a class label; see true = active, false = inactive

Examples from the recorded data:
[
  {
    "Compound": "COc1ccc(/C=C(\\C#N)c2ccccn2)cc1OC",
    "Test System": "SF-539",
    "Assigned Label": "false"
  },
  {
    "Compound": "O=C1C2CN(Cc3ccccc3)CC1CN(CC1CC1)C2",
    "Test System": "SF-539",
    "Assigned Label": "false"
  }
]

Below: the item to evaluate.
Hello, I am checking results. What call was entered for c1csc(-c2csc(-c3ccsc3)c2)c1 ?
false

###

Listed compounds paired with reported GI50
- Test system: 786-0
- Run Description: NCI tumour cell line growth inhibition, 48 h
Activity calls are given as the source filed them. Rule as the data show it: active = GI50 up to about 1.1 µM and inactive = higher.

These recorded examples may help you get a feel for the data.
[
  {
    "Compound": "O=Cn1c2ccccc2c2ccccc21",
    "GI50": "> 100 µM (inactive)"
  },
  {
    "Compound": "O=C(O)CSCC(=O)c1ccccc1",
    "GI50": "> 100 µM (inactive)"
  },
  {
    "Compound": "Cc1c(OCc2cccc3ccccc23)ccc2c(O)cc(=S)oc12",
    "GI50": "41.8 µM (inactive)"
  },
  {
    "Compound": "O=C1CCCC1CC(CN1CCOCC1)Sc1nnnn1-c1ccccc1 (stereo unspecified)",
    "GI50": "> 100 µM (inactive)"
  },
  {
    "Compound": "Nc1cc2ncnc(Nc3cccc(Br)c3)c2cn1",
    "GI50": "19.5 µM (inactive)"
  },
  {
    "Compound": "COC(=O)c1ccc(OCc2ccc3nc(OC)c(OC)nc3c2)cc1",
    "GI50": "> 100 µM (inactive)"
  },
  {
    "Compound": "CCNc1cc2c3c(c1)CCN3CCC2",
    "GI50": "> 10 µM (inactive)"
  },
  {
    "Compound": "Cc1cc(NS(=O)(=O)c2ccc(NC(NC(=O)C(C(F)(F)F)C(F)(F)F)(C(F)(F)F)C(F)(F)F)cc2)no1",
    "GI50": "> 100 µM (inactive)"
  }
]

For the compound COc1ccccc1NC(=O)C1=C(C)NC(C)=C(C(=O)Nc2ccccc2OC)C1c1ccc(C(C)C)cc1 , what GI50 is on record?
> 100 µM (inactive)

# GI50 lookup, item CC(O)(CCCCCl)c1nc2ccccc2s1 (stereo unspecified)
> 100 µM (inactive)

Please report the recorded GI50 for COc1ccc(-c2c(C(C)=O)c(-c3ccccc3)n(C3OC(COC(C)=O)C(OC(C)=O)C(OC(C)=O)C3OC(C)=O)c(=S)c2C#N)cc1 (stereo unspecified) .
> 100 µM (inactive)

Tell me the measured GI50 of C=C(CN(CC)CC)C1(c2ccccc2)CC2(CCCC2)C(=O)O1 (stereo unspecified) , please.
> 100 µM (inactive)

Can you look up the measured GI50 of Cc1ccc(/N=N/C(=N/NC(=O)c2cc(Cl)ccc2C(=O)c2ccccc2)c2ccc(N(CCC#N)CCC#N)cc2C)cc1 for me?
10.4 µM (inactive)

Dear colleague, I am looking for the recorded GI50 of the following compound: CC(=O)OC12c3ccccc3C(c3ccccc31)C1C(=O)N(Nc3ccccc3)C(=O)C12 (stereo unspecified)
> 100 µM (inactive)

Returns the measured GI50 for the input compound. Input: COc1cc(-c2oc3ccccc3c(=O)c2O)cc(OC)c1OC
9.75 µM (inactive)

Which value of GI50 has been reported for [O-][Cl+3]([O-])([O-])[O-].[O-][Cl+3]([O-])([O-])[O-].c1ccn2c(N3CCOCC3)[n+]3c4ccccc4[n+]4c(N5CCOCC5)n5ccccc5c4c3c2c1 in the records?
> 100 µM (inactive)

###

Some compounds, each annotated with its measured GI50.
- Tested on: MDA-MB-435
- Run Description: NCI tumour cell line growth inhibition, 48 h
Activity calls are given as the source filed them. Cut-off read from the data, not from the text of the source: active = GI50 up to about 1.1 µM and inactive = higher.

# annotated cases, reported GI50 shown
[
  {
    "Compound": "CO[C@]12C[C@H](CNC(=O)c3cc(Br)c(Br)[nH]3)O[C@H]1NC(=O)N2",
    "GI50": "> 100 µM (inactive)"
  },
  {
    "Compound": "CCOP(=O)(OCC)/C(C#N)=C/c1cccn1N(C)C",
    "GI50": "> 100 µM (inactive)"
  },
  {
    "Compound": "COc1cc(/C=C2/SC(c3ccccc3)N(c3cccc([N+](=O)[O-])c3)C2=O)cc(OC)c1OC (centres undefined)",
    "GI50": "26.9 µM (inactive)"
  }
]

Name the reported GI50 value associated with the compound CC(=O)O[C@H]1CC[C@@]2(C)C(=CC[C@@H]3[C@@H]2CC[C@]2(C)c4c(C)nn(-c5ccccc5)c4C[C@@H]32)C1
45.7 µM (inactive)

###

Listed compounds paired with reported GI50
- Tested on: OVCAR-5
- Run Description: NCI tumour cell line growth inhibition, 48 h
Calls of active or inactive are those of the source. No stated cut-off is given here; in the data, active = GI50 up to about 1.1 µM and inactive = higher.

[
  {
    "Compound": "C=C(Cl)/C(=C/Cl)CCC(Br)C(C)(C)Cl.C=C(Cl)/C(=C\\Cl)CCC(Br)C(C)(C)Cl (stereo not drawn)",
    "Test System": "OVCAR-5",
    "Metric": "GI50",
    "Result": "> 10 µM (inactive)"
  },
  {
    "Compound": "O=C(c1cc2c(C(F)(F)F)onc2c2ccccc12)C(F)(F)F",
    "Test System": "OVCAR-5",
    "Metric": "GI50",
    "Result": "6.9 µM (inactive)"
  },
  {
    "Compound": "Cc1cn([C@H]2C[C@@H](N3C(=O)c4ccccc4C3=O)[C@@H](CO[Si](C)(C)C(C)(C)C)O2)c(=O)[nH]c1=O",
    "Test System": "OVCAR-5",
    "Metric": "GI50",
    "Result": "> 100 µM (inactive)"
  },
  {
    "Compound": "COc1ccc(CNc2cc(=O)n(C)c(=O)[nH]2)cc1",
    "Test System": "OVCAR-5",
    "Metric": "GI50",
    "Result": "> 100 µM (inactive)"
  },
  {
    "Compound": "COC(=O)C(=O)C(/C(=N/N)C(=O)Nc1ccccc1C(N)=O)c1nc2ccc([N+](=O)[O-])cc2nc1O (stereo not drawn)",
    "Test System": "OVCAR-5",
    "Metric": "GI50",
    "Result": "> 100 µM (inactive)"
  }
]

For the compound shown here, Cc1ccsc1/C=N/Nc1cnccn1 , give the reported GI50.
94 µM (inactive)

Fill in: GI50 of COC(=O)C12OCC34C(CC5C(C)=C(O)C(=O)CC5(C)C3C(O)C1O)OC(=O)C(OC(=O)C=C(C)C)C24 (stereo not drawn) is ___
> 500 µM (inactive)

Which GI50 value belongs to CSc1c(C)[n+]([O-])c2cc(Cl)c(Cl)cc2[n+]1[O-] ?
17.4 µM (inactive)

Fill blank: measured GI50 of the compound Cc1ccc(/N=N/C(=N/NC(=O)c2cc(Cl)ccc2C(=O)c2ccccc2)c2ccc(N(CCC#N)CCC#N)cc2C)cc1 is ____.
21.3 µM (inactive)

Entry under review: c1ccc2c[n+](CCCCCCCCCC[n+]3ccc4ccccc4c3)ccc2c1 . Reported GI50?
> 5.09 µM (inactive)

Name the recorded GI50 for CCOC(=O)[C@H](Cc1ccc(O)cc1)/N=C1/[C@H]2CCC[C@]1(O)[C@@](C)([N+](=O)[O-])C2 .
> 100 µM (inactive)

Data request, read-out GI50, for CC(=O)OCC1OC(SC2=N/C(=C\c3ccc(Br)s3)C(=O)N2CN2CCOCC2)C(OC(C)=O)C(OC(C)=O)C1OC(C)=O (stereo not drawn)
22.9 µM (inactive)

What value of measured GI50 is listed for CCCCC1Cc2cc(OC)ccc2-c2n1c1cc(OC)ccc1[n+]2C.CCCCC1Cc2cc(OC)ccc2-c2n1c1ccc(OC)cc1[n+]2C (stereo not drawn) ?
9.77 µM (inactive)

Please report the recorded GI50 for O=C1c2ccsc2-c2cccc3cccc1c23.O=C1c2sccc2-c2cccc3cccc1c23 .
1.71 µM (inactive)

Entry O=C(NCc1ccccc1)c1cc2ccc(O)c(O)c2cn1 : reported GI50 = ?
26 µM (inactive)

Consider the compound C=C(CO[Si](C)(C)C(C)(C)C)C(C)=O and give its measured GI50.
31 µM (inactive)

So what's the measured GI50 for this one? Nc1nc(-c2ccccc2/N=N/N2CCCC2)nc2ccccc12
1.86 µM (inactive)

Returns the measured GI50 for the input compound. Input: COc1ccc(-c2c(C(C)=O)c(-c3ccccc3)n(C3OC(COC(C)=O)C(OC(C)=O)C(OC(C)=O)C3OC(C)=O)c(=S)c2C#N)cc1 (stereo not drawn)
> 100 µM (inactive)

Data provenance: ChEMBL document CHEMBL1201862
